Where these numbers come from: ChEMBL document CHEMBL4819020

Test system: PC-9
Assay: Antiproliferative activity against human PC-9 cells assessed as inhibition of cell proliferation measured after 72 hrs by MTT assay
Type: functional, cell-based
Conditions: PC-9, 72 h
Please assign a class to every record based on measured IC50, with ranges lower range: < 5 µM; middle range: ≥ 5 µM and < 8 µM; upper range: ≥ 8 µM

See these solved cases before continuing.
{"columns": ["chemical-smiles", "class"],
 "data": [
  ["Cc1cc(Nc2cc(-c3ccccc3)[nH]n2)n2nc(SCc3ccccc3Br)nc2n1", "middle range"],
  ["CCCSc1nc2nc(C)cc(Nc3cc(-c4ccccc4)[nH]n3)n2n1", "upper range"],
  ["Cc1cc(Nc2cc(-c3ccccc3)[nH]n2)n2nc(SCc3c(Cl)cccc3Cl)nc2n1", "middle range"],
  ["Cc1cc(Nc2ccn(Cc3csc4ccc(Cl)cc34)n2)n2nc(SCc3ccc(Br)cc3)nc2n1", "lower range"],
  ["Cc1nc2nc(SCc3ccc(Cl)cc3)nn2c(Nc2cc(-c3ccccc3)[nH]n2)c1C", "upper range"],
  ["Cc1cc(Nc2cc(-c3ccccc3)[nH]n2)n2nc(SCC(=O)c3ccccc3)nc2n1", "lower range"],
  ["Cc1cc(Nc2cc(-c3ccccc3)[nH]n2)n2nc(SCc3ccc(Br)cc3)nc2n1", "lower range"],
  ["Cc1cc(Nc2ccn(Cc3ccccc3)n2)n2nc(SCc3ccc(Br)cc3)nc2n1", "upper range"],
  ["Cc1cc(Nc2ccn(Cc3ccc(F)cc3)n2)n2nc(SCc3ccc(Br)cc3)nc2n1", "upper range"],
  ["Cc1ccc(CSc2nc3nc(C)cc(Nc4cc(-c5ccccc5)[nH]n4)n3n2)cc1", "middle range"]
]}

## Input Lab log: COc1ccc(Cn2ccc(Nc3cc(C)nc4nc(SCc5ccc(Br)cc5)nn34)n2)cc1 — assign IC50 category
## Output upper range

## Input Lab log: Cc1cc(Nc2cc(C(C)(C)C)[nH]n2)n2nc(SCc3ccc(Br)cc3)nc2n1 — assign IC50 category
## Output upper range
